Biological target: Grb2 SH2 (UniProt P62993)
Sequence (P62993 whole entry, looked up): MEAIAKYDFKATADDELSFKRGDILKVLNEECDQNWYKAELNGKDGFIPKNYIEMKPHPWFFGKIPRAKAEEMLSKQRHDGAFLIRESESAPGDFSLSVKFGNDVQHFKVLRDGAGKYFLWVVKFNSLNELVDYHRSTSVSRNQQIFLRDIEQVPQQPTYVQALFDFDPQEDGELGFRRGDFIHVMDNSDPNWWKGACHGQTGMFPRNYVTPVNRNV
Experiment: SH2 binding enrichment of the phosphorylated peptide, bacterial display (enrichment ratio); higher = better substrate or ligand; peptides without Tyr show the background
QUANTITY: SH2 binding enrichment
Give bare numbers.

Some entries whose results are on file:
| SEQ_TEXT | SH2 binding enrichment |
| --- | --- |
| IQKKYYRAILE [CHD7_Y1218] | 0.976 |
| AALVQYYMEHH [PTPN11_Y80_E76A] | 0.991 |
| EVLKNYSQQKD [GOLGA4_Y1551_N1552S] | 0.887 |

The following sequences each have a reported value; give each one's SH2 binding enrichment.
1. ENEGTYVCIAT [ADAMTSL3_Y1365]
2. SYSGEYGGGGG [ZG16_Y30]
3. AEVIWYKGDEV

[0.74, 0.784, 0.822]

The following sequences each have a reported value; give each one's SH2 binding enrichment.
1. QTLEAYIRWNK [SPAST_Y604]
2. GMRHGHGVRQS [JPH2_Y141_Y141H]
3. HNLYSYPTKHE [MYO3A_Y1396]
4. TGQEEYSAMRD [KRAS_Y64_A59T]

1.26
1.27
0.619
0.838

The following sequences each have a reported value; give each one's SH2 binding enrichment.
1. SLIDGYYRLTE [JAK2_Y372_A377E]
2. PADRAYSWFQH [NDST1_Y711_YF]
3. GLTSTYAGIRK [ROBO1_Y932]
4. RLLCEYQELMN [KRT75_Y434_R432C]
5. LQPNNYQFCGG [CSF1R_Y969]
6. WCKPPYFSCAV [MMS22L_Y28]
7. KSEFAYEIFDK [MYOM2_Y1024_L1022F]

1. 0.843
2. 0.949
3. 0.895
4. 0.618
5. 1.24
6. 1.29
7. 0.613

====

Target: EPHB1 (UniProt P54762)
Sequence (P54762 whole entry, looked up): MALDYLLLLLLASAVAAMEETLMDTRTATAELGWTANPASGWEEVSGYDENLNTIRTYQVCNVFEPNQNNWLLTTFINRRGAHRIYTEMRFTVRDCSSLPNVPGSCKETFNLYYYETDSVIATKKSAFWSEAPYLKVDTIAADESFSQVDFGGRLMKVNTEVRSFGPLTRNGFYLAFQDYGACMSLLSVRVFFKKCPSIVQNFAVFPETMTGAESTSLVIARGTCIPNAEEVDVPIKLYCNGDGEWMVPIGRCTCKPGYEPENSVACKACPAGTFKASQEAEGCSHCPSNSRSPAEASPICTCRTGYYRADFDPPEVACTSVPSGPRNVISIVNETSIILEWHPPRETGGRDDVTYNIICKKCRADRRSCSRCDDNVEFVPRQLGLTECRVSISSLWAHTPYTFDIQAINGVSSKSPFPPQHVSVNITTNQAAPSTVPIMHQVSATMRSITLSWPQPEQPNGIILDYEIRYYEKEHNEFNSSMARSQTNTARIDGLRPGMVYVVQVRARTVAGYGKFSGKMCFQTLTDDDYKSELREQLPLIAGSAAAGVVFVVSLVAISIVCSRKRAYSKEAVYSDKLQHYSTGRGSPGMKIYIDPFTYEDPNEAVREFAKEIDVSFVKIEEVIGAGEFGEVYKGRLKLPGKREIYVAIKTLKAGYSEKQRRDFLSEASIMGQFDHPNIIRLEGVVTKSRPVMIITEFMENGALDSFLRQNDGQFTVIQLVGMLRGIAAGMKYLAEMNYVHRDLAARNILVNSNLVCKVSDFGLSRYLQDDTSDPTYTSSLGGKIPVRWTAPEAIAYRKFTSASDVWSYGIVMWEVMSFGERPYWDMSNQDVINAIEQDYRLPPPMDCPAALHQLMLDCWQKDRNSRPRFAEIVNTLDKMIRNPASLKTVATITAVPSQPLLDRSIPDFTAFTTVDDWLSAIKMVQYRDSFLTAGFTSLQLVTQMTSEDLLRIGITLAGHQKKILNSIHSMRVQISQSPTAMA
Assay: phosphorylation enrichment, bacterial display (enrichment ratio); higher = better substrate or ligand; peptides without Tyr show the background
Rule: phosphorylation enrichment of 0.7 or more gives 1 (yes); anything lower gives 0 (no).

Field: example entries. Status: answers known.
| SEQ_TEXT | CAT |
| --- | --- |
| FQQLFYLLQIN [IQGAP2_Y890_T894I_YF] | 1 (yes) |
| VVTFSYKPAGN [RBL2_Y544_P547A] | 0 (no) |
| IVAREYYSDAD [CAMK2A_Y106_E109D] | 1 (yes) |

phosphorylation enrichment >= 0.7 for EREYKYDAHNY [OAT_Y50_G51D] ?
0 (no)

phosphorylation enrichment >= 0.7 for CQAHGYSCQLI [STK11_Y156_F157S] ?
0 (no)

phosphorylation enrichment >= 0.7 for EPDSLYGCGGG [ATM_Y2019] ?
0 (no)

phosphorylation enrichment >= 0.7 for CTTIHYTFMCN [TP53_Y234_N235T_YF] ?
0 (no)

phosphorylation enrichment >= 0.7 for GENTVYAQVFN [LY9_Y603_M602V] ?
1 (yes)

phosphorylation enrichment >= 0.7 for EPSVPYRGMVF [GLI3_Y104_T107M] ?
0 (no)

phosphorylation enrichment >= 0.7 for RKLVDYDSARH [BIN1_Y150] ?
0 (no)

====

Give phosphorylation enrichment for every item shown.
Biological target: EPHB1 (UniProt P54762)
Experiment: phosphorylation enrichment, bacterial display (enrichment ratio); higher = better substrate or ligand; peptides without Tyr show the background
One number for each entry.

| SEQ_TEXT | SUBJECT_OF_TEST | phosphorylation enrichment |
| --- | --- | --- |
| CENCHYPILPL [LCK_Y25_V28L] | EPHB1 (UniProt P54762) | 0.43 |
| IMAYFYMCDRA [CASD1_Y382] | EPHB1 (UniProt P54762) | 0.803 |
| KKLAEYGPQGK [CLCA1_Y147_R152K] | EPHB1 (UniProt P54762) | 0.334 |

The following sequences each have a reported value; give each one's phosphorylation enrichment.
1. STEEQYRIRQV [EFHC1_Y115]
2. LSSNLYYRWLT [CNGA3_Y168_P163L]
3. DWLRRYLENGK [HLA-A_Y195_E190D]

0.314
7.53
0.723

====

Tested on: AncSZ
Experiment: phosphorylation enrichment, bacterial display (enrichment ratio); higher = better substrate or ligand; peptides without Tyr show the background
Give phosphorylation enrichment for every item shown.
Give bare numbers.

| SEQ_TEXT | QUANTITY | ENDPOINT_RESULT |
| --- | --- | --- |
| RLLCEYQELMN [KRT75_Y434_R432C] | phosphorylation enrichment | 1.5 |
| DTYDPYLDVAL [USP36_Y268] | phosphorylation enrichment | 1.55 |
| SGADSYEMEED [EGFR_Y316_C311S] | phosphorylation enrichment | 1.29 |

The following sequences each have a reported value; give each one's phosphorylation enrichment.
1. DYGSGYPNDPK [RNASEH2A_Y210]
2. AGADGYGYLAP [FOXL2_Y186]

[0.86, 0.576]

====

Give phosphorylation enrichment for every item shown.
Target: EPHB2 (UniProt P29323)
Sequence (P29323 whole entry, looked up): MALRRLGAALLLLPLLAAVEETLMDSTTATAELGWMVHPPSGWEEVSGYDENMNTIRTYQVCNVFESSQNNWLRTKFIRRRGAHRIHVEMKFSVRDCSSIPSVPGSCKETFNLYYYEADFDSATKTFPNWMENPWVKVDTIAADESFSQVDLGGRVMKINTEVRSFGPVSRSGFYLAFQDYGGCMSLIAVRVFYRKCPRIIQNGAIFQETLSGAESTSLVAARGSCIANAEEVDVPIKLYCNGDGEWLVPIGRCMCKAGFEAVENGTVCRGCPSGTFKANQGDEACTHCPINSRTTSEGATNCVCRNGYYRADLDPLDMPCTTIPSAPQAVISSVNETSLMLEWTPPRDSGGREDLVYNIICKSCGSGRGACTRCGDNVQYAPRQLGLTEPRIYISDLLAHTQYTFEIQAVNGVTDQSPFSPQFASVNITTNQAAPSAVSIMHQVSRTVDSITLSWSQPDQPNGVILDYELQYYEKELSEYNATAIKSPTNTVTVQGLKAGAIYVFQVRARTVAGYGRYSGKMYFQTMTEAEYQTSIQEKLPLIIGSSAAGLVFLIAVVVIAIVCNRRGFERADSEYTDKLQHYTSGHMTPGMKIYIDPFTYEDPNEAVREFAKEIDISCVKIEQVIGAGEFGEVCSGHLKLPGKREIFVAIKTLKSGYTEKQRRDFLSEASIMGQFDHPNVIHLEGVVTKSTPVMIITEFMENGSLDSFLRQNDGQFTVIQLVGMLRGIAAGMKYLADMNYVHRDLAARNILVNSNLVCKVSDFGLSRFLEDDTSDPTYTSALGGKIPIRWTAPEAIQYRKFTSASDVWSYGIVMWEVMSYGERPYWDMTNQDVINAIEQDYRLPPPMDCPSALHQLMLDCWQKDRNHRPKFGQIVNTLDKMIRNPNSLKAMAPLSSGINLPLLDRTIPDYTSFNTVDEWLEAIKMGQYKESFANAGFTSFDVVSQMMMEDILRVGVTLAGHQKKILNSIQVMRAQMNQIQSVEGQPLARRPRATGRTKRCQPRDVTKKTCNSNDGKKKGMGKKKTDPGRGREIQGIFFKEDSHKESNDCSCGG
Experiment: phosphorylation enrichment, bacterial display (enrichment ratio); higher = better substrate or ligand; peptides without Tyr show the background
Answers are plain numbers.

Some entries whose results are on file:
| SEQ_TEXT | ENDPOINT_RESULT |
| --- | --- |
| TFTVSYLPDMS [FLNC_Y1602_YF] | 0.599 |
| FNVLQYVVPKV [EIF3A_Y382_E386K] | 0.607 |
| PVDTYYDSTRG [DYNC2H1_Y2231_M2227V] | 0.608 |
| FGSGNYNVFGN [HNRNPA2B1_Y300_D302V_YF] | 0.476 |
| LSDGPYSNSYE [EPOR_Y485_P488S] | 0.67 |

The following sequences each have a reported value; give each one's phosphorylation enrichment.
1. GMTRNYIIFIE [BCO2_Y294]
2. EILTQYEAMAS [GFAP_Y242_R239L]
3. IVEYAYNDKAI [PUM3_Y259]
4. TGQEEYSAMRD [KRAS_Y64_A59T]

0.67
0.452
0.69
0.536

The following sequences each have a reported value; give each one's phosphorylation enrichment.
1. DTYDPYLDVAL [USP36_Y268]
2. SLGKGYSVGGC [MC4R_Y35_D37V]

1. 0.776
2. 0.501

The following sequences each have a reported value; give each one's phosphorylation enrichment.
1. RELSWYRGRRP [HESX1_Y106]
2. TFRPPYFHRNC [HGD_Y333_YF]
3. PLDGEYFTLQV [TP53_Y327_I332V]

[0.683, 0.946, 1.44]

The following sequences each have a reported value; give each one's phosphorylation enrichment.
1. FRAPGYREVVI [TNS2_Y673_YF]
2. AFHGEYIPTVF [RAC2_Y32_P29H]
3. KSEFAYEIFDK [MYOM2_Y1024_L1022F]
4. YRGYSYDDIPD [TMEM230_Y112]
5. RSRSPYSPVLR [CDK13_Y399]
6. KMKGEYYRYLA [YWHAG_Y130_D129E]
7. KRFRIYHLAIS [BRCA2_Y3009_T3013I_YF]

0.422
0.447
0.573
0.485
0.477
0.717
0.524

The following sequences each have a reported value; give each one's phosphorylation enrichment.
1. RFVTRYIFNRE [HLA-DQB1_Y62_YF]
2. HLRAGYIIPLQ [GAA_Y822]
3. PLLEYYRDIFT [CDAN1_Y713]
4. NPQKSYLIRLF [WAS_Y83_F84L_YF]
5. HLGNQYVNVMN [SLC3A1_Y461_R456H]
6. QAPPVYLDVLG [NTRK1_Y791]
7. DASAVYLHDFQ [PLCG2_Y242]
8. KRGVSYILKLA [SERPINB1_Y84_A82V]

1: 0.591; 2: 0.453; 3: 1.25; 4: 0.484; 5: 0.477; 6: 1.34; 7: 0.561; 8: 0.557

The following sequences each have a reported value; give each one's phosphorylation enrichment.
1. DEWFLYKMRDI [CPS1_Y879_K875E]
2. VVLEDYLDIKN [CLCNKB_Y138]
3. RASGIYYVPKG [APBB1IP_Y340]
4. DNEALYDTCFR [TUBB2B_Y208_I210T]
5. SLEKGYELPDG [ACTC1_Y242_S241G]
6. QQLQGYVPSNY [FRK_Y99_I100V]
7. LEISPYMLSGR [LRRK2_Y1718]
8. MENFIYESMRF [CYP19A1_Y361_YF]

0.585
0.671
9.84
2.71
0.499
0.36
1.1
2.63

The following sequences each have a reported value; give each one's phosphorylation enrichment.
1. RHTRSYDYTEG [FGF7_Y56_M59T]
2. VGSEDYGRDLT [SPTAN1_Y1792]
3. IGGHAYGDQFR [IDH1_Y135_R132G_YF]

0.369
0.587
0.324

The following sequences each have a reported value; give each one's phosphorylation enrichment.
1. AFSTVYKGLWI [EGFR_Y727_G724S]
2. RYVSRYIYNRE [HLA-DQB1_Y62_T60S]
3. PIFEGYALPHA [ACTA1_Y171_YF]
4. FQRLQYIKQLG [SAMHD1_Y146_R145Q]

1: 0.498; 2: 0.95; 3: 0.574; 4: 0.705
